Biological target: T1, human IL-36R extracellular domain expressed with a C-terminal mouse IgG2a Fc tag (hIL-36R-mFc) (human; mouse, UniProt Q9HB29 20-337)
T1 construct: not shown: mouse IgG2a Fc, E98-K330
T1 sequence (looked up): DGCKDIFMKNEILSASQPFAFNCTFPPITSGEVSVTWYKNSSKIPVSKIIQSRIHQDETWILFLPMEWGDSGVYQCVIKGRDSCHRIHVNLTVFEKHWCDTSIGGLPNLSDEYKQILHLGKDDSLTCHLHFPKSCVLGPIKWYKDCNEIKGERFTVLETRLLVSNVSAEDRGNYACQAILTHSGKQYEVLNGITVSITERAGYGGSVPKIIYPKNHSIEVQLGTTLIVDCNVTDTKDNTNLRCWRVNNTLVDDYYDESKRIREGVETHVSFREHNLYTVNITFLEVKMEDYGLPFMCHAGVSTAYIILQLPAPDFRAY
Test: SPR Biacore 4000, mAb captured on anti-hFc, 37C
pKd values by entry
API: returns pKd as number; meaning -log10 of concentration in mol/L.

H4H14700P2 (antibody, human IgG4 S228P, kappa, V domains shown, Fully human anti-IL-36R antibody) VH: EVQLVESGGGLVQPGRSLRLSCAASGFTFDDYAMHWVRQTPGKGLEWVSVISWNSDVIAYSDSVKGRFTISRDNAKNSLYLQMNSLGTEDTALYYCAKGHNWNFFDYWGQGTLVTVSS VL: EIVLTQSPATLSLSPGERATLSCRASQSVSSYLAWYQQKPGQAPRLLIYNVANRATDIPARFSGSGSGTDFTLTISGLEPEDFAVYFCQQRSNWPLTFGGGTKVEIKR ... 9.41

Query (binder): H4H14709P (antibody, human IgG4 S228P, kappa, V domains shown, Fully human anti-IL-36R antibody) VH: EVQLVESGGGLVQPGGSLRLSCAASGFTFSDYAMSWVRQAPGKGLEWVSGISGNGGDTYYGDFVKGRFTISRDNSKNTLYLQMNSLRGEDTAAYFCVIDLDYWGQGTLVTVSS VL: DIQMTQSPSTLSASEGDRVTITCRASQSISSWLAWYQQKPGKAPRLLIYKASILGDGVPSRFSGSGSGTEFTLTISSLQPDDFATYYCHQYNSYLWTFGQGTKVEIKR ; field requested: pKd
9.69

Query (binder): H4H14758P (antibody, human IgG4 S228P, kappa, V domains shown, Fully human anti-IL-36R antibody) VH: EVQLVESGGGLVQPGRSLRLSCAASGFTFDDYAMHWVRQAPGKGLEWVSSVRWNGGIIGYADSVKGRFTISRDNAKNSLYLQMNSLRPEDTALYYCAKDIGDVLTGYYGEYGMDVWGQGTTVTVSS VL: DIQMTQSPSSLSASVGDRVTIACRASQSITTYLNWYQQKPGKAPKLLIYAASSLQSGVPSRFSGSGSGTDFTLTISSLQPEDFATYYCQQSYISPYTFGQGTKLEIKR ; field requested: pKd
9.29
